experimental-target: cannabinoid receptor-1 (CB1), CB1R-containing cell membrane (Homo sapiens, UniProt P21554)
Construct: purchased Applied Cell Sciences Inc, Rockville, Md
Sequence (P21554 whole entry, species assumed): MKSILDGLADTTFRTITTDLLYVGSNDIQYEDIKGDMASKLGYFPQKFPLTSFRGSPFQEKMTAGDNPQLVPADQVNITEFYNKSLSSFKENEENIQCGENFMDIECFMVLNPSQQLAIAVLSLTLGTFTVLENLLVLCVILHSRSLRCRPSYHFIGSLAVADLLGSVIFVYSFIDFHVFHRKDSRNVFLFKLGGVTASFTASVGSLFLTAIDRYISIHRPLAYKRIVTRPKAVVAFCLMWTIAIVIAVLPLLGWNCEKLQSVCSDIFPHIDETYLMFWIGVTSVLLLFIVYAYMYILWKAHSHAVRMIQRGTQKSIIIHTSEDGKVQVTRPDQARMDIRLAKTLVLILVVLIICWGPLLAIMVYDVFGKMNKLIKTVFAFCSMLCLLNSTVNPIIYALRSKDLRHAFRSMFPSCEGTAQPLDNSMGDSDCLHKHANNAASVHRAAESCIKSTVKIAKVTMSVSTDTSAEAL
assay-explanation: biochemical
Format: binding
study-conditions: displacement of 3H-CP55940 (1 nM) on CB1 receptors; read-out: IC50
Description: Method A using cell membranes. A compound is dissolved in DMSO and diluted to 1 M as a stock solution. […] A CB1R-containing cell membrane (Applied Cell Sciences Inc, Rockville, Md.) is diluted with binding buffer to a protein concentration of 28 μg/ml. The mixture is incubated for 90 min at room temperature, then filtered through Whatman glass fiber C disc filter in a vacuum manifold. The filter is washed three times each with 2.5 ml cold wash buffer (binding buffer with only 2.5 mg/ml BSA). […]
pIC50: −log10 of the molar value.
readout-name: pIC50

Some entries whose results are on file:
- compound: "O=C(NC1CCCc2ccccc21)[C@H](CCC(=O)N1CCN(C2CCCCC2)CC1)N1C(=O)[C@@H](N2C(=O)OC[C@@H]2c2ccccc2)[C@H]1/C=C/c1cccc2ccsc12 (some centres unmarked) [Example 72A]"
  pIC50: "~5.00"
- compound: "C[C@@H](NC(=O)[C@H](CCC(=O)N1CCN(C2CCCCC2)CC1)N1C(=O)[C@@H](N2C(=O)OC[C@@H]2c2cccc(Cl)c2)[C@H]1/C=C/c1ccccc1)c1ccccc1 [Example 73H]"
  pIC50: "~5.00"
- compound: "O=C(CC[C@@H](C(=O)N1CCN(c2ccccn2)CC1)N1C(=O)[C@@H](N2C(=O)OC[C@@H]2c2ccccc2)[C@H]1/C=C/c1ccccc1)NCc1cc(F)cc(C(F)(F)F)c1 [Example 73F]"
  pIC50: "~5.00"
- compound: "O=C(CC[C@@H](C(=O)N1CCN(CCc2cccs2)CC1)N1C(=O)[C@@H](N2C(=O)OC[C@@H]2c2ccccc2)[C@H]1/C=C/c1ccccc1)NCc1cc(F)cc(C(F)(F)F)c1 [Example 73G]"
  pIC50: "~5.00"

Supply pIC50 value. Item: O=C(CC[C@@H](C(=O)N1CCN(C2CCCCC2)CC1)N1C(=O)[C@@H](N2C(=O)OC[C@@H]2c2ccccc2)[C@H]1/C=C/c1ccccc1)NCc1ccc(Cl)c(C(F)(F)F)c1 [Example 37U]
5.68

Retrieve pIC50 measured for O=C(CC[C@@H](C(=O)N1CCN(C2CCCCC2)CC1)N1C(=O)[C@@H](N2C(=O)OC[C@@H]2c2ccccc2)[C@H]1/C=C/c1ccccc1)NCc1cc(F)cc(C(F)(F)F)c1 [Example 37S] and print it.
5.64

# return recorded pIC50 for input O=C(N[C@@H]1CCCc2ccccc21)[C@H](CCC(=O)N1CCN(C2CCSCC2)CC1)N1C(=O)[C@@H](N2C(=O)OC[C@@H]2c2ccccc2)[C@H]1/C=C/c1ccccc1 [Example 73B]
~5.00

Answer with the recorded pIC50 for the compound listed here: O=C(CC[C@@H](C(=O)N1CCN(c2ccccc2)CC1)N1C(=O)[C@@H](N2C(=O)OC[C@@H]2c2ccccc2)[C@H]1/C=C/c1ccccc1)NCc1cc(F)cc(C(F)(F)F)c1 [Example 73D]
~5.00

These data points were gathered from patent US20100016274A1.
